measuredOn: Growth hormone secretagogue receptor type 1 (Homo sapiens, UniProt Q92847)
Sequence (Q92847 whole entry): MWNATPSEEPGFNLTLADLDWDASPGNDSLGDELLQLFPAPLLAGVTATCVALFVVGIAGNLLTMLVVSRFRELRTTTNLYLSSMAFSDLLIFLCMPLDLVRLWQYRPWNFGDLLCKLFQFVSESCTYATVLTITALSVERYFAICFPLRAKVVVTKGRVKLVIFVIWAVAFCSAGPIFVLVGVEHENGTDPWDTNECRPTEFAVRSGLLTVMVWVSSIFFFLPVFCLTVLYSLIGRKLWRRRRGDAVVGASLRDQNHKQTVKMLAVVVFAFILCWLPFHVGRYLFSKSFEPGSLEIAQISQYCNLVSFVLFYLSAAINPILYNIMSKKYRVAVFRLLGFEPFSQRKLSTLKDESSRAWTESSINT
testName: Receptor Binding Studies
Under this convention, condition met denotes IC50 strictly below 400 nM and condition not met denotes IC50 at or above 400 nM.

Before answering, review these 3 worked examples.
>  <compound>
CCc1ccc(Cn2c(CCc3ccccc3)nnc2[C@@H](Cc2c[nH]c3ccccc23)NC(=O)[C@H]2CCCCN2)cc1

>  <answerLabel>
condition met

$$$$
>  <compound>
COc1ccc(Cn2c(CCc3ccccc3)nnc2[C@@H](Cc2c[nH]c3ccccc23)NC(=O)C2CCOCC2)cc1

>  <answerLabel>
condition met

$$$$
>  <compound>
CCc1ccc(Cn2c(CCc3ccccc3)nnc2[C@@H](Cc2c[nH]c3ccccc23)NC(=O)C2CNCCN2)cc1 (some centres not stated)

>  <answerLabel>
condition met

$$$$

-- ask In the record for O=C(N[C@H](Cc1c[nH]c2ccccc12)c1nnc(Cc2ccccc2)n1Cc1ccccn1)C1CCNCC1 , is IC50 less than 400 nM?
-- reply condition not met

-- ask Please let me know if O=C(N[C@H](Cc1c[nH]c2ccccc12)c1nnc(CCc2ccccc2)n1Cc1ccco1)C1CCNCC1 shows IC50 below 400 nM.
-- reply condition not met

-- ask is_below(IC50, 400 nM) for COc1ccc(Cn2c(CCc3ccccc3)nnc2[C@@H](Cc2c[nH]c3ccccc23)NC(=O)[C@H]2CCCCN2)c(OC)c1 ?
-- reply condition met

-- ask # TODO verify IC50 < 400 nM strictly for this compound: O=C(N[C@H](Cc1c[nH]c2ccccc12)c1nnc(CCc2ccccc2)n1-c1ccccc1)C1CCNCC1
-- reply condition not met

----------
measuredOn: Growth hormone secretagogue receptor type 1 (Homo sapiens, UniProt Q92847)
testName: Receptor Binding Studies
runConditions: pH 7.3; 25 °C
The entries below come with measured Kb values attached.
Answer format: numeric, nM implied, no suffix.

>  <testSmiles>
COc1ccc(Cn2c(CCc3ccccc3)nnc2[C@@H](Cc2c[nH]c3ccccc23)NC(=O)[C@H]2CCCN2)cc1

>  <measureUnit>
nM

>  <Kb>
8

$$$$

-- ask Recall the recorded Kb for COc1ccc(Cn2c(CCc3ccccc3)nnc2[C@@H](Cc2c[nH]c3ccccc23)NC(=O)[C@@H]2CCCN2)cc1 with Growth hormone secretagogue receptor type 1 (Homo sapiens, UniProt Q92847) and state it.
-- reply 13

-- ask # get_value(readout= Kb, system= Growth hormone secretagogue receptor type 1 (Homo sapiens, UniProt Q92847)) for COc1ccc(Cn2c(CCc3c[nH]c4ccccc34)nnc2[C@@H](Cc2c[nH]c3ccccc23)NC(=O)[C@H]2CCCN2)cc1
-- reply 7

-- ask Lookup: Kb / Growth hormone secretagogue receptor type 1 (Homo sapiens, UniProt Q92847) / COc1ccc(Cn2c(CCc3ccccc3)nnc2[C@@H](Cc2c[nH]c3ccccc23)NC(=O)[C@H]2CCCNC2)cc1
-- reply 10

-- ask Lab request: please report Kb under test system Growth hormone secretagogue receptor type 1 (Homo sapiens, UniProt Q92847) for COc1ccc(Cn2c(CCc3ccccc3)nnc2[C@@H](Cc2c[nH]c3ccccc23)NC(=O)[C@@H](N)Cc2ccccc2)cc1
-- reply 24

-- ask What reported Kb corresponds to COc1ccc(Cn2c(CCc3c[nH]c4ccccc34)nnc2[C@@H](Cc2c[nH]c3ccccc23)NC(=O)[C@@H]2CCCN2)c(OC)c1 on Growth hormone secretagogue receptor type 1 (Homo sapiens, UniProt Q92847)?
-- reply 11

-- ask API: value(readout=Kb, system=Growth hormone secretagogue receptor type 1 (Homo sapiens, UniProt Q92847)) for record COc1ccc(Cn2c(CCc3c[nH]c4ccccc34)nnc2[C@@H](Cc2c[nH]c3ccccc23)NC(=O)CN)c(OC)c1
-- reply 27

----------
measuredOn: Growth hormone secretagogue receptor type 1 (Homo sapiens, UniProt Q92847)
testName: Receptor Binding Studies
runConditions: pH 7.3; 25 °C
quantityName: EC50 (nM)
Just the number please, in nM, no unit attached.

-- ask Please look up its EC50: COc1ccc(Cn2c(CCc3ccccc3)nnc2[C@@H](Cc2c[nH]c3ccccc23)NC(=O)CCN)cc1
-- reply 256

----------
measuredOn: Growth hormone secretagogue receptor type 1 (Homo sapiens)
testName: Receptor Binding Studies
Reported pEC50 values for the following compounds.
Entry type: numeric. Quantity: pEC50, the -log10 of concentration in molar units.

Here are 2 compounds together with their reported answers.
>  <compound>
COc1ccc(Cn2c(CCc3ccccc3)nnc2[C@@H](Cc2c[nH]c3ccccc23)NC(=O)C2CNCCN2)c(OC)c1 (some centres undefined)

>  <pEC50>
7.71

$$$$
>  <compound>
CCc1ccc(Cn2c(CCc3ccccc3)nnc2[C@@H](Cc2c[nH]c3ccccc23)NC(=O)C2CNCCN2)cc1 (some centres undefined)

>  <pEC50>
6.84

$$$$

-- ask For the record COc1ccc(Cn2c(CCc3c[nH]c4ccccc34)nnc2[C@@H](Cc2c[nH]c3ccccc23)NC(=O)C2CNCCN2)cc1 (some centres undefined) , what value of pEC50 is listed for Growth hormone secretagogue receptor type 1 (Homo sapiens)?
-- reply 8.06

-- ask Give Growth hormone secretagogue receptor type 1 (Homo sapiens) pEC50 for COc1ccc(-n2c(CCc3ccccc3)nnc2[C@@H](Cc2c[nH]c3ccccc23)NC(=O)C2CCNCC2)c(OC)c1
-- reply 7.85

-- ask Hi! What's the reported pEC50 for O=C(N[C@H](Cc1c[nH]c2ccccc12)c1nnc(CCc2ccccc2)n1Cc1ccco1)C1CCNCC1 on Growth hormone secretagogue receptor type 1 (Homo sapiens)?
-- reply 6.74

-- ask Fill in the recorded pEC50 for this compound, with Growth hormone secretagogue receptor type 1 (Homo sapiens) as test system: COc1ccc(Cn2c(CCc3ccccc3)nnc2[C@@H](Cc2c[nH]c3ccccc23)NC(=O)C2CNCCN2)cc1 (some centres undefined)
-- reply 7.92

-- ask GET /values?readout=pEC50&system=Growth hormone secretagogue receptor type 1 (Homo sapiens)&item= COc1ccc(Cn2c(CCc3ccccc3)nnc2[C@@H](Cc2c[nH]c3ccccc23)NC(=O)C2CCCCC2)cc1
-- reply 6.41

-- ask Find the measured pEC50: item COc1ccc(Cn2c(CCc3ccccc3)nnc2[C@@H](Cc2c[nH]c3ccccc23)NC(=O)C2CCNCC2)cc1 , target or system Growth hormone secretagogue receptor type 1 (Homo sapiens).
-- reply 8.80

-- ask Please provide the recorded pEC50 for COc1ccc(Cn2c(CCc3ccccc3)nnc2[C@@H](Cc2c[nH]c3ccccc23)NC(=O)C2CCNCC2)c(OC)c1 , tested on Growth hormone secretagogue receptor type 1 (Homo sapiens).
-- reply 8.21

Origin of measurements: BindingDB's records for doi:10.1021/jm0704550
